Target: T1, human CXCR2 (human, UniProt P25025 1-360)
T1 construct: Expressed on Flp-In CHO cells (FACS, Fab-ZAP, ADCC, CDC) or on bought PathHunter CHO cells (beta-arrestin assay); the construct in the PathHunter cells is not described; also called chemokine receptor CXCR2; CXCR2 CHO Flp-In cells
T1 sequence: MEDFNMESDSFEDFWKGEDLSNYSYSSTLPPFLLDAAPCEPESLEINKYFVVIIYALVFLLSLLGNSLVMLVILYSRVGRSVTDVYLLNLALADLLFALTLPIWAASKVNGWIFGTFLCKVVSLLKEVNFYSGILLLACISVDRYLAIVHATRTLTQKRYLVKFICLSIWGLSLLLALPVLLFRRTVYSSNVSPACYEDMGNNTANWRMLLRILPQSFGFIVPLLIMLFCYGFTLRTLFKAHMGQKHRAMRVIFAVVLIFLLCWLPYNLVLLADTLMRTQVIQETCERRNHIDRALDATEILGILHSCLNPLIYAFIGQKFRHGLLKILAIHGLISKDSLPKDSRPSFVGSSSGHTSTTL
Assay: FACS, CXCR2 CHO Flp-In cells, Fab
Protocol: Human CXCR2-expressing Flp-In™ CHO cells were harvested at ˜80% confluence washed once with PBS (Gibco, Cat #14190-094) and detached using Versene (Invitrogen, Cat #15040-033). Subsequently, cells were counted and centrifuged at 250×g for 5 min at 4° C. […] Binding of anti-CXCR2 antibodies was detected by incubation of Phycoerythrin-conjugated anti-human IgG (Dianova, Cat #109-116-097) for 1 h at 4° C. Samples were subsequently measured using FACS Array (Becton Dickinson).
reported.endpoint: binding result

CX2-Mab #18 (Fab, V domains shown) VH: EVQLLESGGGLVQPGGSLRLSCAASGFTFSRYAMSWVRQAPGKGLEWVSVISSDGGTTYYADSVKGRFTISRDNSKNTLYLQMNSLRAEDTAVYYCARIFSYALDYWGQGTLVTVSS VL: DIVLTQPPSVSGAPGQRVTISCSGSSSNIGSYYVNWYQQLPGTAPKLLIYRNSKRPSGVPDRFSGSKSGTSASLAITGLQAEDEADYYCSSYDAHSDSVVFGGGTKLTVLG: binds
CX2-Mab #19 (Fab, V domains shown) VH: EVQLVQSGAEVKKPGESLKISCKGSGYSFTSYWISWVRQMPGKGLEWMGIIDPANSYTRYSPSFQGQVTISADKSISTAYLQWSSLKASDTAMYYCARVERRPRYYGSNYYGMDVWGQGTLVTVSS VL: DIVLTQPPSVSGAPGQRVTISCSGSSSNIGSNYVNWYQQLPGTAPKLLIYGNSNRPSGVPDRFSGSKSGTSASLAITGLQAEDEADYYCSVRDSEGRYVVFGGGTKLTVLG: binds
CX2-Mab #12 (Fab, V domains shown) VH: QVQLLESGGGLVQPGGSLRLSCAASGFTFSRYWMSWVRQAPGKGLEWVSVISYSGSETYYADSVKGRFTISRDNSKNTLYLQMNSLRAEDTAVYYCARGRAYGYFDPWGQGTLVTVSS VL: DIVLTQPPSVSGAPGQRVTISCSGSSSNIGKKTVSWYQQLPGTAPKLLIYRNNQRPSGVPDRFSGSKSGTSASLAITGLQAEDEADYYCQSTDSTHRMAVFGGGTKLTVLG: binds
